Source of measurements: patent US6130228A

Study System: Butyrylcholinesterase (BChE) (Equus caballus, UniProt P81908)
Construct: purchased Sigma c-7512
Sequence (P81908 whole entry): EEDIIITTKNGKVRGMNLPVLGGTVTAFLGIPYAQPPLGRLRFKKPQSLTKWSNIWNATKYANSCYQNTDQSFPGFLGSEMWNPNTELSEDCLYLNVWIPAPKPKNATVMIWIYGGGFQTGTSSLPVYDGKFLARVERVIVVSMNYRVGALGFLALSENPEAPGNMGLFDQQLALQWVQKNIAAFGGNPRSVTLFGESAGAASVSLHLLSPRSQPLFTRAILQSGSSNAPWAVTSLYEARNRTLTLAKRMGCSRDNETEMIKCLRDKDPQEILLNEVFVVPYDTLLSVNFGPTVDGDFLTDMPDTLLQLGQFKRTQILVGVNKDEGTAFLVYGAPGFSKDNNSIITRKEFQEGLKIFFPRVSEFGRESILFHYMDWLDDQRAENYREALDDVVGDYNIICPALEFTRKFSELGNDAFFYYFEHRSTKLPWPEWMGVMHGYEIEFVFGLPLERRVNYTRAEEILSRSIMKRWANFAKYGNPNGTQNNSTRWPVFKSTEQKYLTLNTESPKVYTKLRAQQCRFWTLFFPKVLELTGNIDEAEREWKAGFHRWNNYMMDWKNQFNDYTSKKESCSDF
Procedure Text: biochemical
Test Conditions: Table 2; read-out: BChE IC50
Reported Property: pIC50
Friendly reminder that pIC50 comes from taking -log10 of the concentration in mol/L.

Consider the worked cases shown below.
Structure As Smiles | Reported Property | Value Measured
Cc1ccc(C)c2c(N)c3c(nc12)CCC3 | pIC50 | 5.85
Nc1c2c(nc3ccc(F)cc13)CCCC2 | pIC50 | 6.39
Nc1c2c(nc3c(Cl)cccc13)CCC2 | pIC50 | 4.84
Nc1c2c(nc3ccc(F)cc13)CCC2 | pIC50 | 6.12

Can you look up the measured pIC50 of `Cc1ccc2c(N)c3c(nc2c1C)CCC3` for me?
5.04

Can you look up the measured pIC50 of `Cc1ccc2nc3c(c(N)c2c1)CCC3` for me?
5.96

Can you look up the measured pIC50 of `Nc1c2c(nc3c(O)cccc13)CCC2` for me?
6.30

Can you look up the measured pIC50 of `c1ccc(CNc2c3c(nc4ccccc24)CCC3)cc1` for me?
4.86

Can you look up the measured pIC50 of `Nc1c2c(nc3ccc(Br)cc13)CCC2` for me?
5.72

Can you look up the measured pIC50 of `Nc1c2c(nc3cccc(Cl)c13)CCC2` for me?
6.28

Can you look up the measured pIC50 of `Nc1c2c(nc3cc(F)ccc13)CCC2` for me?
7.39

* * *

Study System: Butyrylcholinesterase (BChE) (Equus caballus, UniProt P81908)
Construct: purchased Sigma c-7512
Procedure Text: biochemical
Protocol: The following components were utilised: Phosphate Buffer (0.1M, pH 7.4) Made up to 500 ml with distilled H2 O, pH 7.4 1 ml of enzyme solution (i), was incubated with 2 ml PDS for 60 minutes at 0° C. Components of the assay blank, controls and test solutions are provided below: 0.9 ml phosphate buffer (0.1M, pH 7.4) […] Control was taken as 100%. Inhibitor was calculated as a percentage of control. A graph of Log of inhibitor conc. versus % control was plotted and IC50 values calculated by interpolation.
Reported Property: BChE TACRINE RATIO
# output: bare number, no unit

Consider the worked cases shown below.
Compound | Value Measured
Nc1c2c(nc3ccc(F)cc13)CCCC2 [Compound 18] | 0.061
Nc1c2c(nc3ccc(Cl)cc13)CCC2 [Compound 19] | 0.019
Cc1ccc(C)c2c(N)c3c(nc12)CCC3 [Compound 20] | 0.018
Nc1c2c(nc3ccc(F)cc13)CCC2 [Compound 11] | 0.033
Cc1cc(C)c2c(N)c3c(nc2c1)CCC3 [Compound 30] | 0.035

Can you look up the measured BChE TACRINE RATIO of Nc1c2c(nc3c(O)cccc13)CCC2 [Compound 12] for me?
0.050

Can you look up the measured BChE TACRINE RATIO of Nc1c2c(nc3cc(F)cc(F)c13)CCC2 [Compound 9] for me?
0.018

Can you look up the measured BChE TACRINE RATIO of Nc1c2c(nc3ccc(Br)cc13)CCC2 [Compound 25] for me?
0.013

Can you look up the measured BChE TACRINE RATIO of Nc1c2c(nc3cccc(F)c13)CCC2 [Compound 14] for me?
0.017

Can you look up the measured BChE TACRINE RATIO of Cc1ccc2c(N)c3c(nc2c1C)CCC3 [Compound 26] for me?
0.003

Can you look up the measured BChE TACRINE RATIO of Cc1cccc2c(N)c3c(nc12)CCC3 [Compound 21] for me?
0.002

Can you look up the measured BChE TACRINE RATIO of Nc1c2c(nc3c(F)cc(F)cc13)CCC2 [Compound 32] for me?
0.003

Can you look up the measured BChE TACRINE RATIO of Nc1c2c(nc3c(Cl)cccc13)CCC2 [Compound 22] for me?
0.002
